Experiment: in vivo
Details: male, Sprague-Dawley, rat, plasma, po, 5 mg/kg
Experimental Endpoint: Tmax (min)
Numbers only, in min.

Entry CCc1c(CC2CCCCC2)nc(SCc2cc(-c3ccc(O)cc3)[nH]n2)[nH]c1=O [I-11] has what Tmax? 30

----------
Assay: in vivo
Conditions: male, Sprague-Dawley, rat, plasma, iv, 1 mg/kg
Experimental Endpoint: AUC(0-inf) (ng·h/mL)
One number for each entry, in ng·h/mL.

Need AUC(0-inf) of CCc1c(CC2CCCCC2)nc(SCc2cc(-c3ccc(O)cc3)[nH]n2)[nH]c1=O [I-11] , thanks. 2630

----------
Answer each item with its documented pIC50.
Target: recombinant HIV-1 RT (Human immunodeficiency virus type 1 group M subtype B, UniProt P04585)
Experiment: Enzymatic recombinant HIV-1 RT activity assay
Numbers only, as −log10 of the molar value.

{"Compound Structure": "CCc1c(CC2CCCCC2)nc(SCc2cc(-c3ccc(O)cc3)[nH]n2)[nH]c1=O", "pIC50": 5.96}

Note: attention shifts to another entry.
So what's the measured pIC50 for this one? "CCc1c(CC2CCCCC2)nc(SCc2cc(-c3ccc(SC)cc3)[nH]n2)[nH]c1=O" 5.64

Where these numbers come from: paper PMC7049619
